The reported numbers originate from ChEMBL document CHEMBL1136936.

- test summary: Half life in rat at 5 mg/kg, po
- Format: ADME, organism-based
- Parameters: dose 5 mg/kg, route oral
- applied conditions: in vivo
result type: half-life (h)
Provide only the numeric value, understood in h.

Dear colleague, I am looking for the recorded half-life of the following molecule: `N#Cc1cccc(S(=O)(=O)N2C[C@H](NC3CCC3)C[C@H]2C(=O)N[C@@H](Cc2ccc(NC(=O)c3c(Cl)cncc3Cl)cc2)C(=O)O)c1`
1
